The measurements presented in this section are drawn from patent US20250381168A1.

Target: integrin a4b7 (Homo sapiens (Human), UniProt P13612+P26010)
Sequence (P13612 34-970): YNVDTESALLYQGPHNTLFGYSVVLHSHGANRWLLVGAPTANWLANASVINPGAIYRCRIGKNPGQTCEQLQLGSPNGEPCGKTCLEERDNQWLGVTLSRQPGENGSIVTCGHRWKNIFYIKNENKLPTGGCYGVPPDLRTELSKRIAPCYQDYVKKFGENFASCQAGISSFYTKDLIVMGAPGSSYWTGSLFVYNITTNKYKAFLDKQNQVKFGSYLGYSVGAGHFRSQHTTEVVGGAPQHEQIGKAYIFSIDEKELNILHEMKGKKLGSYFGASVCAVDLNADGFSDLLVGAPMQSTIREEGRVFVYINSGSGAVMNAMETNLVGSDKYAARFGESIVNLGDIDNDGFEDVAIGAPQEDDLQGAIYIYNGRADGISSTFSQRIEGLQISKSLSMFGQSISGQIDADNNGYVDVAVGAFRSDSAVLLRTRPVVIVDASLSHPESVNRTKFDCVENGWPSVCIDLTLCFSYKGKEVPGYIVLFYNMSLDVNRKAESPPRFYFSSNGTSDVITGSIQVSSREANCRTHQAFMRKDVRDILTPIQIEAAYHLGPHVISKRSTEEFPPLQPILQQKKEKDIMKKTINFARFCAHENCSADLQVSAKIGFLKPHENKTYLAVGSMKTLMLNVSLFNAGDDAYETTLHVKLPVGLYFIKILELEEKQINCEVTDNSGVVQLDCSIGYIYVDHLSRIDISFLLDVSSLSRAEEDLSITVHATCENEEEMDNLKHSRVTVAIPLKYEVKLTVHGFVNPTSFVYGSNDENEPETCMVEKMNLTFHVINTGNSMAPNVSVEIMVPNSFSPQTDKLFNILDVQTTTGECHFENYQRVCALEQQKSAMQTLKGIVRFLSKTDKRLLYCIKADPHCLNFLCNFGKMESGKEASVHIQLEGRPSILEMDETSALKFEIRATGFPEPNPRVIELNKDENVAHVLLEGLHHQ
Sequence (P26010 20-723): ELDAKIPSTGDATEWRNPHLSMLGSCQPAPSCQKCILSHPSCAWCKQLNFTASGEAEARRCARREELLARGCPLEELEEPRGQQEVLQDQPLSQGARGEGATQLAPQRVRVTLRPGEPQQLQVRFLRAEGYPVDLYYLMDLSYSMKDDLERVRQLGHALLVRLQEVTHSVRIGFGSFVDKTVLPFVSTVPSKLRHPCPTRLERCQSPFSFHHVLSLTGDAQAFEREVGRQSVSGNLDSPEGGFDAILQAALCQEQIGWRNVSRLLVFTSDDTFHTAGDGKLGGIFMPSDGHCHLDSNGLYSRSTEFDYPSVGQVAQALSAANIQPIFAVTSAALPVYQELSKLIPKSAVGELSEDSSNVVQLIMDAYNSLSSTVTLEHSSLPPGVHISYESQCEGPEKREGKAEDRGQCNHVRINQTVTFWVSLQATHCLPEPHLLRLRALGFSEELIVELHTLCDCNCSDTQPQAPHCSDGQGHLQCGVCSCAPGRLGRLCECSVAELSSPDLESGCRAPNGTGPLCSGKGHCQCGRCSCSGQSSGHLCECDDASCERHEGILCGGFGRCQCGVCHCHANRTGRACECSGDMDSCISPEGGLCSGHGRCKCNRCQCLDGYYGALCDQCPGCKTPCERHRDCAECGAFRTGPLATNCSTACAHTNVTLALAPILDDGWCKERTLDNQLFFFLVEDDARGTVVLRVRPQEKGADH
Assay: a4b7 solid phase receptor assay (SPRA)
Conditions: recombinant human a4b7 binding to plate-coated human VCAM1 (TABLE 4)
readout-name: IC50 (nM)

compound	unit-descriptor	IC50
COCCOCCOCCOCCOCCOCCOCCOCCOCCOCCOCCOCCOCCOCCOCCOCCOCCOCCOCCOCCOCCOCCOCCOCCOCc1cc(OC)c(-c2ccc(C[C@H](NC(=O)[C@@H]3CCCN3S(=O)(=O)c3cc(Cl)cc(Cl)c3)C(=O)O)cc2)c(OC)c1 [Example 1]	nM	5.6
COCCOCCOCCOCCOCCOCCOCCOCCOCCOCCOCCOCCOCCOCCOCCOCCOCCOCCOCCOCCOCCOCCOCCOCCOCCOCCOCCOCCOCCOCCOCCOCCOCCOCCOCCOCCOCc1cc(OC)c(-c2ccc(C[C@H](NC(=O)[C@@H]3CCCN3S(=O)(=O)c3cc(Cl)cc(Cl)c3)C(=O)O)cc2)c(OC)c1 [Example 2]	nM	5.4
COCCOCCOCCOCCOCCOCCOCCOCCOCCOCCOCCOCCOCCOCCOCCOCCOCCOCCOCCOCCOCCOCCOCCOCCOCc1cc(OC)c(-c2ccc(C[C@H](NC(=O)c3c(Cl)cc(C(=O)O)cc3Cl)C(=O)O)cc2)c(OC)c1 [Example C17]	nM	1.5
COc1cccc(OC)c1-c1ccc(C[C@H](CC(=O)c2c(Cl)cc(C(=O)O)cc2Cl)C(=O)O)cc1 [Example C1]	nM	1.1

* * *

System: hematopoietic stem/progenitor cells (HSPCs)
Assay: HSPC mobilization into peripheral blood, colony forming unit (CFU) assay
Conditions: mice, single dose, peripheral blood, 2 hr post dose (TABLE 10)
Items are presented alongside their recorded No. CFU (×10^3)/mL ± SD, 2 hr.

compound	result
COCCOCCOCCOCCOCCOCCOCCOCCOCCOCCOCCOCCOCCOCCOCCOCCOCc1cc(OC)c(-c2ccc(C[C@H](NC(=O)[C@@H]3CCCN3S(=O)(=O)c3cc(Cl)cc(Cl)c3)C(=O)O)cc2)c(OC)c1 [Example C14]	3.40 ± 1.42 (×10^3)/mL
COCCOCCOCCOCCOCCOCCOCCOCCOCCOCCOCCOCCOCCOCCOCCOCCOCCOCCOCCOCCOCCOCCOCCOCCOCCOCCOCCOCCOCCOCCOCCOCCOCCOCCOCCOCCOCc1cc(OC)c(-c2ccc(C[C@H](NC(=O)[C@@H]3CCCN3S(=O)(=O)c3cc(Cl)cc(Cl)c3)C(=O)O)cc2)c(OC)c1 [Example 2]	4.42 ± 1.41 (×10^3)/mL
COCCOCCOCCOCCOCCOCCOCCOCCOCCOCCOCCOCCOCCOCCOCCOCCOCCOCCOCCOCCOCCOCCOCCOCCOCc1cc(OC)c(-c2ccc(C[C@H](NC(=O)[C@@H]3CCCN3S(=O)(=O)c3cc(Cl)cc(Cl)c3)C(=O)O)cc2)c(OC)c1 [Example 1]	4.18 ± 1.99 (×10^3)/mL

Proceed to the following item.
The measured No. CFU (×10^3)/mL ± SD, 2 hr associated with COCCOCCOCCOCCOCCOCCOCCOCCOCCOCCOCCOCCOCCOCCOCCOCCOCCOCCOCCOCCOCCOCCOCCOCCOCc1cc(OC)c(-c2ccc(C[C@H](NC(=O)c3c(Cl)cc(C(=O)O)cc3Cl)C(=O)O)cc2)c(OC)c1 [Example C17] reads 3.67 ± 1.09 (×10^3)/mL
